tgt: human recombinant heparanase (h-hpa) (Homo sapiens, UniProt Q9Y251)
Sequence (Q9Y251 158-543 limits assumed): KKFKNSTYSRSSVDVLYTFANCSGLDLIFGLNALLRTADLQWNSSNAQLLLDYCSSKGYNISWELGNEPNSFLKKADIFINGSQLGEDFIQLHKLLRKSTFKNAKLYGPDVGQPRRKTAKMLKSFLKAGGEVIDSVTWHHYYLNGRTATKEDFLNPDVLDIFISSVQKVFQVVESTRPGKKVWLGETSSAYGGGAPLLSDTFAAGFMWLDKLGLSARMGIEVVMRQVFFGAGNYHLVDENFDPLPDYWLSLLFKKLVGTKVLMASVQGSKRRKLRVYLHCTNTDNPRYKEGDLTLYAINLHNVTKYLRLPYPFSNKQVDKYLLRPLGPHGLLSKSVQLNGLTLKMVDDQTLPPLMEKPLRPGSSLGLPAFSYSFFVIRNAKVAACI
Sequence (Q9Y251 36-109 limits assumed): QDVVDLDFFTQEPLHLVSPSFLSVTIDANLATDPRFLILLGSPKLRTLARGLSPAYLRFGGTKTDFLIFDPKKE
assay_notes: In vitro dimethylmethylene blue (DMB) assay for heparanase activity
Friendly reminder: IC50 below 1 µM is 1 (yes), at or above is 0 (no).

- CCCCCCCCCCCCCCCCCC(=O)Nc1cc(C(=O)O)ccc1Oc1cc(C(=O)O)cc(C(=O)O)c1 [Compound 61]: 0 (no)
- CCCCCCCCCCCC1OC1CCCCC(=O)Nc1cc(C(=O)O)ccc1Oc1cc(C(N)=O)cc(C(N)=O)c1 (stereo not shown) [Compound 96]: 0 (no)
- O=C(O)CCCCCCCCCCN1C(=O)/C(=C/c2cccc(Br)c2)SC1=S [Compound 81]: 0 (no)
- CCCCCCCCCCCCC/C=C/CC(O)(C(=O)Cc1cc(C(=O)O)ccc1Oc1cc(C(=O)O)cc(C(=O)O)c1)C(F)(F)F (stereo not shown) [Compound 98]: 0 (no)
- CCCCCCCCCCCCCCCCCCN(C)c1ccc(S(=O)(=O)O)cc1NC(=O)c1cc(/N=N/c2cccc(NS(=O)(=O)c3ccccc3)c2)c2ccccc2c1O [Compound 33]: 1 (yes)

Please examine the following record next.
Problem: hey, is IC50 for CCCCCCCCCCCCCCCCCCN(C(=O)c1ccc2ccccc2c1O)c1cc(C(=O)O)cc(C(=O)O)c1 [Compound 3] lower than 1 µM or not?
Solution: 1 (yes)

Entry source: patent US20070185176A1
